System: KRas-mediated phosphorylation of ERK in MKN1 cells
MEASUREMENT_DESCRIPTION: Inhibition of KRas-mediated phosphorylation of ERK (Cisbio HTRF pERK), MKN1 cells
Format: cell-based
APPLIED_CONDITIONS: Homo sapiens, MKN-1
MEASURED_ENDPOINT: IC50 (nM)

Record excerpt, results attached:
COMPOUND	UNIT_OF_MEASURE	IC50
CCc1c(F)ccc2cc(O)cc(-c3ncc4c(N5CCOCC(C)(O)C5)nc(OCC56CCCN5[C@H](COC(=O)N(C)C)CC6)nc4c3F)c12 (stereo in doubt)	nM	25
CCc1cccc2cc3[nH]ncc3c(-c3ncc4c(N5CCCC6(C5)NC(=O)NC6=O)nc(OC[C@@]56CCCN5C[C@H](F)C6)nc4c3F)c12 (stereo partly drawn)	nM	22

I: CCc1c(F)ccc2cc(O)cc(-c3ncc4c(N5CCCC6(CCCCO6)C5)nc(OC[C@@]56CCCN5C[C@H](F)C6)nc4c3F)c12 (stereo partly drawn)
II: C#Cc1c(F)ccc2cc(O)cc(-c3ncc4c(N5CCCC6(CC(O)C6)C5)nc(OC[C@]56CCCN5[C@H](COC(=O)N(C)C)CC6)nc4c3F)c12 (stereo partly drawn)
III: CCc1c(F)ccc2cc(O)cc(-c3ncc4c(N5CCOC[C@]6(CCO6)C5)nc(OC[C@@]56CCCN5C[C@H](F)C6)nc4c3F)c12
IV: CCc1c(F)ccc2cc(O)cc(-c3ncc4c(N5C[C@H]6CC[C@@H](C5)[C@H]6O)nc(OC[C@@]56CCCN5C[C@H](F)C6)nc4c3F)c12
## Input Could you please order the items by IC50, going from the lowest number to the highest? Lab note: record answer as labels in requested order.
## Output III, II, IV, I
